For each entry below, report its IC50 (pM), ISRE assay value.
measuredTarget: IFN-αJ1 (human, UniProt P01567 24-189)
procedureDetails: cell-based or functional assay
One number for each entry, in pM.

>  <binder>
IFWM3405 (antibody, IgG1, V domains shown) VH: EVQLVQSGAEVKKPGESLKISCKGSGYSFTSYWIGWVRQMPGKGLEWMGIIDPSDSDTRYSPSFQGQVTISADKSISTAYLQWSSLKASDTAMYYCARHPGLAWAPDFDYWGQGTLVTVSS VL: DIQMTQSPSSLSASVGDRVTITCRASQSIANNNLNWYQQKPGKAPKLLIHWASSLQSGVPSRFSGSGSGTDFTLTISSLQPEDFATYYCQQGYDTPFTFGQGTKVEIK

>  <measuredNumber>
26

$$$$

Input: State the recorded IC50 (pM), ISRE assay for this entry: IFWM3310 (antibody, IgG1, V domains shown) VH: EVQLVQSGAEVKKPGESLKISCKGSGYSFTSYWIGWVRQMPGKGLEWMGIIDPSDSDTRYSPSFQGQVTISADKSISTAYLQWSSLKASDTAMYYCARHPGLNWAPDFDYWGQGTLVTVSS VL: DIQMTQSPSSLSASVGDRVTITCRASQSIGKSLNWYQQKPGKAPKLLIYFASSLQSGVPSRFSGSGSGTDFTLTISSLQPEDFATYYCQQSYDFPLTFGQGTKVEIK
Output: 166
